// data source = paper PMC10427391

- Target Under Test: CYP2E1 (Homo sapiens, UniProt P05181)
- Measurement Description: In vitro inhibition of CYP2E1 (chlorzoxazone as substrate)
- Assay type: biochemical
- Parameters: A 100 µL microsomal incubation system; from tissue
- Sequence (P05181 whole entry): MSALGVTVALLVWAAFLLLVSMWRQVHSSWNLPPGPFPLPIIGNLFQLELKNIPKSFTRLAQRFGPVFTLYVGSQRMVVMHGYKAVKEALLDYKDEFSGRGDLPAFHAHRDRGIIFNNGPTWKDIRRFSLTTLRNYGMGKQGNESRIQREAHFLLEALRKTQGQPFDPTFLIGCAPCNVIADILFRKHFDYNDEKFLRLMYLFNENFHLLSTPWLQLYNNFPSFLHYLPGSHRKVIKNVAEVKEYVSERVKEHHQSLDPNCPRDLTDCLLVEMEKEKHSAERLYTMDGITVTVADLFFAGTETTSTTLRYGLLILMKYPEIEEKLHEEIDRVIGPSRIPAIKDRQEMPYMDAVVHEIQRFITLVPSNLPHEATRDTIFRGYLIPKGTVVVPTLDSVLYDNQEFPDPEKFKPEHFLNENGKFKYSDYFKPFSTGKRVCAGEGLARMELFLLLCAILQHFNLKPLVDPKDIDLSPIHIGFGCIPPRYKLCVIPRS
Assay Metric: Ki (nM)

record_smiles=CC(=O)c1scnc1C assay_metric=Ki quantity_unit=nM measured_number=897

---

- Target Under Test: CYP2E1 (Homo sapiens, UniProt P05181)
Assay Metric: Kd (µM)

record_smiles=CC(=O)c1scnc1C quantity_unit=µM measured_number=7

---

- Measurement Description: In vivo biodistribution / BBB permeability of Q11 (plasma, cortex, hippocampus, HPLC)
- Measurement Context: female, SD, rat, in vivo, po, 30 mg/kg
Assay Metric: Tmax

compound="CC(=O)c1scnc1C [Compound Q11, 1‐(4‐methyl‐5‐thialzolyl) ethanone]" result="~1 h"
